Recorded measurements of melting point, one per entry
Assay Readout: melting point

# Compound, Result
data = [
    ("CN1C(=S)N(c2ccc(Cl)c(Cl)c2)C(O)C1O (stereo unspecified)", "115 to 117 °C"),
    ("CN(C)C(=O)c1ccc(I)cc1", "103 to 106 °C"),
    ("Cc1cccc2c(=O)cc(C3CCCC3)oc12", "51 to 52 °C"),
    ("CC(C)c1cc(C(C)C)n(-c2ccc(NC(=O)c3cccnc3)cc2)n1", "190 to 192 °C"),
    ("COC(=O)c1c(C2CC2)nn2ccc3c(c12)CCO3", "170 to 172 °C"),
    ("COc1cccc(CNc2nccc(-c3cc(N4CCN(CCCN5CCOCC5)CC4)c4cc(OC)ccc4c3)n2)c1", "65 to 73 °C"),
]

----------
Recorded measurements of melting point, one per entry

# Compound, melting point
rows = [
    ("CS(=O)(=O)C=C(N)C1(c2ccc(Cl)cc2)CCC1", "125 to 126 °C"),
    ("O=C(O)C(=O)Nc1ccc(Oc2ccc(NC(=O)C(=O)O)cc2)cc1", "> 320 °C"),
    ("CCCc1c(SCCCOc2ccc(C(C)O)c(OCCCC(=O)O)c2CCC)ccc(C(C)=O)c1O (centres undefined)", "85 to 86 °C"),
    ("NC(=O)c1cc(F)cc(-c2cccc3cc(Cc4cccc(C(F)(F)F)c4)sc23)c1", "165 to 166 °C"),
    ("CSc1nc(Cl)cc(-c2ccc(C(F)(F)F)cc2)n1", "93 to 96 °C"),
    ("CC(=O)O[C@H]1C[C@@H](n2ncc(Cl)c(Cl)c2=O)[C@H](O)[C@@H]1O (racemic)", "119 to 122 °C"),
    ("O=C(Nc1ccc2ccc(-c3ccc(Cl)cc3)nc2n1)c1cccc(Br)c1", "220 to 224 °C"),
    ("Cc1coc(C)c1-c1nc2cc(Cl)cc(CCc3ccccn3)c2o1", "73 to 76 °C"),
    ("O=C(N[C@H](Cc1ccc(C(F)(F)F)cc1)[C@@H](O)c1cccc2ccccc12)c1cccc2ccccc12 (racemic)", "217 to 218 °C"),
]

----------
# Compound, melting point
records = [
    ("O=P(O)(O)Cc1cc(C(F)(F)F)cc(C(F)(F)F)c1", "206 to 208 °C"),
    ("CCOC(=O)CC(C#N)(CC(=O)OCC)c1ccccn1", "86.5 to 88 °C"),
    ("NC(=O)C(N)Cc1ccc([N+](=O)[O-])cc1 (stereo unspecified)", "160 to 162 °C"),
    ("CCCc1c(OCCCCCOc2ccc3c(c2CCC)OC(C(=O)OCC)CC3=O)ccc(C(C)=O)c1O (stereo unspecified)", "80 to 81 °C"),
    ("CC1(C)CCCC(=Cc2ccc(Cl)cc2)C1=O", "92 °C"),
    ("NC(C(=O)O)c1ccc(CC(=O)O)cc1 (stereo unspecified)", "250 °C"),
    ("CN1C(NCCCO)=NC(c2ccccc2)c2cc(Cl)ccc21 (stereo unspecified)", "165 to 166 °C"),
    ("O=C(OCc1ccccc1)N1CCOc2c(Br)cc(Cl)cc21", "95 to 97.7 °C"),
    ("O=c1c(-c2ccc(O)cc2)coc2ncccc12", "262 to 264 °C"),
    ("O=C(OCC1CC1)c1ccc(OCCC2CCN(c3ccc(Cl)nn3)CC2)cc1", "134 °C"),
    ("Cc1ccc2c(n1)N(CCCN(C(C)C)C(C)C)c1ccccc1N(C)C2=O", "118 to 119 °C"),
    ("CNc1nc(Cl)c(Cl)c(N2CCN(C(=O)OC(C)(C)C)CC2)n1", "129 to 131 °C"),
    ("Cc1cc(-c2ccc(F)cc2)c(C=CC=O)o1", "89 to 90 °C"),
    ("NNc1nc2c(Cl)cccc2s1", "232 to 235 °C"),
    ("NC(=O)n1cc(-c2ccc(Oc3ccc(N)cc3)cc2)cn1", "158 to 160 °C"),
    ("CCS(=O)(=O)N(C)Cc1ccc2[nH]cc(CCCN3CCN(c4ncncc4OC)CC3)c2c1", "113 to 115 °C"),
    ("Fc1ccc2c(c1)CC(CN1CCC(c3noc4cc(F)ccc34)CC1)O2 (racemic)", "129 to 130 °C"),
    ("CN(C)CC(=O)Nc1cccc2c1C(=O)c1c(NC(=O)CN(C)C)cccc1C2=O", "194 to 195 °C"),
    ("COc1ccc(C2CCN(c3c(C)c(C)c4c(c3C)C(c3ccccc3)C(C)(C)O4)CC2)cc1OC (stereo unspecified)", "118 to 120 °C"),
    ("Nc1cc2c(cc1[N+](=O)[O-])CCO2", "140 to 142 °C"),
    ("COC(=O)NC=Cc1ccc(OCC2CO2)c(OC)c1 (stereo unspecified)", "122 to 123 °C"),
    ("Cc1c(CC(C)(C)C(=O)O)n(Cc2ccc(Cl)cc2)c2ccc(OCc3cccc(-c4ccccc4)n3)cc12", "137 to 139 °C"),
    ("O=C(O)c1cccc(Br)c1Nc1ccccc1Br", "181 to 182 °C"),
    ("CC(C)(C)OC(=O)Nc1ccc(C#Cc2ccccc2F)cc1NC(=O)CC(=O)c1cccc(C#N)c1", "216 to 217 °C"),
    ("CCCCCCCCCCCc1ccc(F)c(-c2nc(-c3ccccc3Cl)nn2C)c1", "35 to 37 °C"),
    ("Cc1nnc2ccc(-c3cccc(N)c3)nn12", "193 °C"),
    ("CC(C)(C)OC(=O)N1CCC(CCNC(=O)c2noc(-c3ccc(C#N)cc3)n2)CC1", "138 to 139 °C"),
    ("CNC(=O)c1cc(-c2ccc(OC)cc2)n[nH]c1=O", "246 to 247 °C"),
    ("CCn1c(=O)c2c(nc(/C=C/c3ccc(OC)c(C)c3)n2C)n(CC)c1=O", "176 to 178 °C"),
    ("CC1c2cnc3ccc(O[Si](C)(C)C(C)(C)C)cc3c2C(CO[Si](C)(C)C(C)(C)C)C(O)C1O (stereo unspecified)", "206 to 209 °C"),
    ("CCCCC(OCC(=O)c1ccccc1)C(F)CC (stereo unspecified)", "39.6 to 40.1 °C"),
    ("CON=C(N)C1=Nc2ccc(Cl)cc2C(c2ccccc2F)=NC1", "120 to 124 °C"),
    ("CCCn1cc(-c2ccc3nnn(Cc4ccc5ncccc5c4)c3n2)cn1", "128 to 130 °C"),
    ("CCc1ccc2c(c1)NC(=O)C2=O", "128 to 136 °C"),
    ("COc1ccc(-c2cccc(C(N)=O)c2)cc1OC1CCCC1", "133 to 135 °C"),
    ("O=C(c1ccccc1)N1CCc2[nH]c3cccc(-c4ccccc4)c3c2CC1", "223 to 226 °C"),
    ("O=C1N=C(N2CCOCC2)SC1=Cc1ccc(OC(F)(F)F)c(-c2cc(F)c(O)c(C34CC5CC(CC(C5)C3)C4)c2)c1", "238 °C"),
    ("CC(C)[C@H](NC(=O)CN)c1nc2c(C(F)(F)F)cccc2c(O)c1C(=O)Nc1nccs1", "230 °C"),
    ("CN1CCN(c2nc(=NC(=O)NC(C)(C)C)ss2)CC1", "169 to 172 °C"),
    ("COc1cccc(N(C)C(=O)c2cnc(Br)s2)c1", "106 °C"),
    ("CCCCCC(=O)Nc1ccc2scc(Cc3ccc(C(=O)O)cc3OC)c2c1", "234 to 235 °C"),
]
